Test system: UACC-257
run description: NCI tumour cell line growth inhibition, 48 h
Calls of active or inactive are those of the source. Cut-off read from the data, not from the text of the source: active = GI50 up to about 1.1 µM and inactive = higher.
Classes used: active, inactive

- compound: "CC1OC(O)CC(OC(=O)c2ccccc2)C1OC(=O)c1ccccc1 (centres undefined)"
  discrete label: "inactive"
- compound: "CC(=O)N1c2ccccc2C2=NN=C(N(C)C)SC21 (centres undefined)"
  discrete label: "inactive"
- compound: "COCC([C@@H](O)C(O)C(=O)NCC[C@@H](C)c1nc(/C=C/CC2OC3(C[C@H](O)C2C)OC(C(C[C@H](O)C(C)[C@H](O)C(C)/C=C(C)/C(C)=C/C=C/C(C)=C/C#N)OC)[C@@H](OP(=O)(O)O)C3(C)C)co1)N(C)C (some centres undefined)"
  discrete label: "active"
- compound: "Nc1nc(=O)n(C2OC(CO)C(O)C2O)c2ncc(-c3ccc(-c4ccccc4)cc3)nc12 (centres undefined)"
  discrete label: "inactive"

* * *

System: SW-620
run description: NCI tumour cell line growth inhibition, 48 h
Activity calls are given as the source filed them. No stated cut-off is given here; in the data, active = GI50 up to about 1.1 µM and inactive = higher.

- compound: "NC(=O)n1ncc(Cl)c(Cl)c1=O"
  tested system: "SW-620"
  GI50: "> 100 µM (inactive)"
- compound: "CC(=O)OC/C=C\\Cn1ncc(=O)[nH]c1=O"
  tested system: "SW-620"
  GI50: "17.1 µM (inactive)"
- compound: "COc1ccc(C(SCC(N)C(=O)O)(c2ccc(OC)cc2)c2ccc(OC)cc2)cc1 (centres undefined)"
  tested system: "SW-620"
  GI50: "> 10 µM (inactive)"
- compound: "CC(=O)OC1=C2CC3(C)OC(=O)CC(C)(C)C3=CC=C2C=C(C(C)C)C1=O (centres undefined)"
  tested system: "SW-620"
  GI50: "0.316 µM (active)"
- compound: "O=c1c2cccc3cccc(c4n1CCCN=4)c32"
  tested system: "SW-620"
  GI50: "92.5 µM (inactive)"
- compound: "c1ccc(/C(=N/Nc2ccccn2)c2cccnn2)cc1"
  tested system: "SW-620"
  GI50: "3.44 µM (inactive)"
- compound: "C[C@]12Cc3cnc(-c4ccccc4)nc3C[C@@H]1CC[C@@H]1[C@@H]2CC[C@@]2(C)[C@H]1CC[C@]2(C)O"
  tested system: "SW-620"
  GI50: "21.2 µM (inactive)"
- compound: "Cc1ccc(OP(=O)(Oc2ccc(C)cc2)N2C=Cc3ccccc3C2C#N)cc1 (centres undefined)"
  tested system: "SW-620"
  GI50: "> 100 µM (inactive)"
- compound: "C=CCCCN1CCCC(C)C1=S (centres undefined)"
  tested system: "SW-620"
  GI50: "> 100 µM (inactive)"

* * *

System: OVCAR-3
run description: NCI tumour cell line growth inhibition, 48 h
Calls of active or inactive are those of the source. No stated cut-off is given here; in the data, active = GI50 up to about 1.1 µM and inactive = higher. Peptide text beside a SMILES is read from it. * marks the point of attachment. Cbz = O=C(OCc1ccccc1)*
// reported GI50 for each item listed

- molecule: "CC(C)=C1C2CC3(C)CCC2(C)CCC13.CC1=CCC2C3(C)CCC2(C(C)C)C1C3 (centres undefined)"
  GI50: "16.5 µM (inactive)"
- molecule: "O=C(/C(=C/c1cccs1)c1ccccc1)c1ccccc1"
  GI50: "> 100 µM (inactive)"
- molecule: "Cc1c(Cl)cccc1NC(=O)C(=O)C1C(=O)NC(=O)NC1=O"
  GI50: "> 100 µM (inactive)"
- molecule: "CC(C)=CCNc1ncnc2c1ncn2CCC(=O)OC(C)(C)C"
  GI50: "> 100 µM (inactive)"
- molecule: "CC1=NN(C(=O)c2ccccc2O)C(=O)/C1=C/c1cccc([N+](=O)[O-])c1"
  GI50: "1.87 µM (inactive)"
- molecule: "COC(=O)[C@@H](NC(=O)[C@H](N)Cc1ccc(N(CCCl)CCCl)cc1)C(C)C"
  GI50: "6.38 µM (inactive)"
- molecule: "c1ccc(/C(=N/Nc2ccccn2)c2cccnn2)cc1"
  GI50: "1.92 µM (inactive)"
- molecule: "CSCC(CO)NC(=O)/C=C/c1c(C)[nH]c(=O)[nH]c1=O (centres undefined)"
  GI50: "53.1 µM (inactive)"
- molecule: "CCOP(=O)(/C=C\\n1ccc(=O)[nH]c1=O)OCC"
  GI50: "> 100 µM (inactive)"
- molecule: "O=C(O)CCC(NC(=O)OCc1ccccc1)C(=O)NC(Cc1c[nH]cn1)C(=O)O (stereo not drawn) (Cbz-Glu-His-OH; configuration not given here)"
  GI50: "> 100 µM (inactive)"
- molecule: "CC1=C(/C=C/C(C)=C/C=C/C(C)=C/C(=O)Nc2ccc(O)cc2)C(C)(C)CCC1 [FENRETINIDE]"
  GI50: "2.55 µM (inactive)"
- molecule: "CCCC(=O)OCOC(=O)N(C)/N=N/c1ccc(C(=O)OCC)cc1"
  GI50: "33.7 µM (inactive)"
- molecule: "Cc1cc2ccccc2n2c1nc1ccc(O)cc12"
  GI50: "> 10 µM (inactive)"
- molecule: "CCCCCCCCCCCCCCCC(=O)Nc1ccn(C2CC(OP(=O)(O)OCC3OC(n4cc(F)c(=O)[nH]c4=O)CC3OC(C)=O)C(CO)O2)c(=O)n1 (centres undefined)"
  GI50: "> 53.2 µM (inactive)"
- molecule: "CC(O[Si](C)(C)C(C)(C)C)[C@H](NC(=O)OCC(Cl)(Cl)Cl)C(=O)O (some centres undefined)"
  GI50: "79.6 µM (inactive)"
- molecule: "CCSc1c2ccccc2c(-c2nc(F)nc(F)n2)n1CCc1ccccc1"
  GI50: "> 100 µM (inactive)"
- molecule: "CN(C)CCCNC(=O)N/N=C/c1cccc([N+](=O)[O-])c1"
  GI50: "> 100 µM (inactive)"
- molecule: "Nc1nc(N)c2ncn(-c3ccc(Cl)cc3)c2n1"
  GI50: "40.6 µM (inactive)"
- molecule: "COc1c2c(c(OC)c3c1c(=O)c1ccccc1n3C)OCO2"
  GI50: "5.51 µM (inactive)"

* * *

Test system: OVCAR-5
run description: NCI tumour cell line growth inhibition, 48 h
The source made the active and inactive calls. Rule as the data show it: active = GI50 up to about 1.1 µM and inactive = higher.
outcome measure: GI50

- molecule: "Cc1ccc(C2=C(c3ccccc3)C(=O)C(c3ccccc3)=C2c2ccc(C)cc2)cc1"
  outcome measure: "GI50"
  value measured: "> 100 µM (inactive)"
- molecule: "COc1cccc2c1C(=O)C1(O)CCCCC21 (centres undefined)"
  outcome measure: "GI50"
  value measured: "> 100 µM (inactive)"
- molecule: "O=C(CCc1n[nH]c(=S)o1)Nc1ccccc1C(F)(F)F"
  outcome measure: "GI50"
  value measured: "> 100 µM (inactive)"
- molecule: "Clc1cc2c(cc1Cl)CC(NCCN1CCCC1)CC2 (centres undefined)"
  outcome measure: "GI50"
  value measured: "14.6 µM (inactive)"

* * *

System: SW-620
run description: NCI tumour cell line growth inhibition, 48 h
Activity calls are given as the source filed them. Cut-off read from the data, not from the text of the source: active = GI50 up to about 1.1 µM and inactive = higher.

- compound: "NC(=O)c1ccccc1NC(=O)C(=O)C(C(=O)c1ccc2ccccc2c1)C1OC(=O)c2ccccc21 (stereo not drawn)"
  GI50: "8.24 µM (inactive)"
- compound: "CC1=NN(C(=O)CC(=O)Nc2cccc(C)c2)C(=O)C1/N=N\\c1ccc(S(=O)(=O)c2ccc(/N=N/C3C(=O)N(C(=O)CC(=O)Nc4cccc(C)c4)N=C3C)cc2)cc1 (stereo not drawn)"
  GI50: "> 100 µM (inactive)"
- compound: "O=S(=O)(O)c1ccc2cccc(/N=N\\c3c(O)ccc4ccccc34)c2c1"
  GI50: "> 100 µM (inactive)"

* * *

System: SK-MEL-2
run description: NCI tumour cell line growth inhibition, 48 h
Active and inactive are the calls of the source. Cut-off read from the data, not from the text of the source: active = GI50 up to about 1.1 µM and inactive = higher.

- compound: "O=c1c2cccc3cccc(c4n1CCCN=4)c32"
  tested system: "SK-MEL-2"
  GI50: "> 100 µM (inactive)"
- compound: "CC1=C(/C=C/C(C)=C/C=C/C(C)=C/C(=O)Nc2ccc(O)cc2)C(C)(C)CCC1 [FENRETINIDE]"
  tested system: "SK-MEL-2"
  GI50: "7.33 µM (inactive)"
- compound: "N=c1c2c(=S)n(-c3ccccc3)c(=S)n(-c3ccccc3)c2nc(SCCCN2CCN(c3cccc(Cl)c3)CC2)n1-c1ccccc1"
  tested system: "SK-MEL-2"
  GI50: "62.8 µM (inactive)"
- compound: "Cc1ccc(OP(=O)(Oc2ccc(C)cc2)N2C=Cc3ccccc3C2C#N)cc1 (centres undefined)"
  tested system: "SK-MEL-2"
  GI50: "> 100 µM (inactive)"
- compound: "COc1ccc(C(C)NNC(=O)c2ccncc2)c(OC)c1 (centres undefined)"
  tested system: "SK-MEL-2"
  GI50: "> 100 µM (inactive)"
- compound: "CC(=O)C1=CSC2[C@H](NC(=O)Cc3ccccc3)C(=O)N2C1C(=O)OC(c1ccccc1)c1ccccc1 (some centres undefined)"
  tested system: "SK-MEL-2"
  GI50: "> 100 µM (inactive)"
- compound: "O=C1C[C@@H]2CCCC[C@@H]2C12SCCS2"
  tested system: "SK-MEL-2"
  GI50: "> 100 µM (inactive)"
- compound: "COC(=O)c1cc(C)c(C)c2c1NC(=O)CNC2=O"
  tested system: "SK-MEL-2"
  GI50: "> 100 µM (inactive)"
- compound: "O=C1CCN2c3ccccc3[C@H]3Cc4cccc(c4[C@@H]2C3)CCO1"
  tested system: "SK-MEL-2"
  GI50: "38 µM (inactive)"
